Reference for the values: paper PMC9331314

Listing of entries alongside the reported CC50.
Assay: in vitro
Settings: human
Unit µM implied. Number only.

Past entries and their recorded results:
>  <molecule>
CCN1C(=O)CS/C1=N/N=C1/C[C@H]2CC[C@]1(C)C2(C)C [Compound 3c]

>  <unitsText>
µM

>  <CC50>
54.1

$$$$
>  <molecule>
CN1C(=O)C(C)(C)S/C1=N/N=C1/C[C@H]2CC[C@]1(C)C2(C)C [Compound 4d]

>  <unitsText>
µM

>  <CC50>
514

$$$$

Lab book: CC50 of C=CCn1c(-c2ccc(C)cc2)cs/c1=N/N=C1\C[C@H]2CC[C@]1(C)C2(C)C [Compound 6b] noted as 39.5
